Where these numbers come from: paper PMC2267855

# assay target: wild-type rabbit PepT1 (Oryctolagus cuniculus, UniProt P36836)
# Construct: expressed in transfected cells; host or cells: Xenopus laevis oocytes injected with cRNA
# Sequence (P36836 1-707): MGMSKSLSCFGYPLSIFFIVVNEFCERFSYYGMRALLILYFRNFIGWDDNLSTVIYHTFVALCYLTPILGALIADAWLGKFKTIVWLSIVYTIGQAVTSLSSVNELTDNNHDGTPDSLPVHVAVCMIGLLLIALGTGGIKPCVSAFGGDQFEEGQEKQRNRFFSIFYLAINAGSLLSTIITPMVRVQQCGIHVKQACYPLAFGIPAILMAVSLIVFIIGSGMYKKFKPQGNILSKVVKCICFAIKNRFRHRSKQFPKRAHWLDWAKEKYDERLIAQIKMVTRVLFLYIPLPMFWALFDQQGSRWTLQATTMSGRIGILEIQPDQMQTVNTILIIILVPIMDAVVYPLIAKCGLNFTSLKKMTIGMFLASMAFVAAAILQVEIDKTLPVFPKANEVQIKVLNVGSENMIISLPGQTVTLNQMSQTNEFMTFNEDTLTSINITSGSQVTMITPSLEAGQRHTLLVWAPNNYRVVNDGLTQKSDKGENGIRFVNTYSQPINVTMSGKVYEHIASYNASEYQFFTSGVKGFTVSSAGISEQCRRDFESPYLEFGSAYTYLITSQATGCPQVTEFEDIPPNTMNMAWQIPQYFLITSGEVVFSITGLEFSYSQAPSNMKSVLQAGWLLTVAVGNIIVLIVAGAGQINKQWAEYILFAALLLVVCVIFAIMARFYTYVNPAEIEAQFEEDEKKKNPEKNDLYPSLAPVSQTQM
# assay protocol: Inhibition of [3H]-D-Phe-L-Gln uptake into Xenopus oocytes expressing wild-type PepT1 (competition, Ki)
# Format: cell-based
# condition: wild-type PepT1, pHout 5.5, 0.4 μM [3H]-D-Phe-L-Gln, Xenopus oocytes; read-out: Ki (inhibition of [3H]-D-Phe-L-Gln uptake)
# Experimental: Zero-trans uptake of [^3H]-D-Phe-L-Gln (17.4 Ci/mmole, custom synthesised, Cambridge Research Biochemicals, Stockton-on-Tees, UK) was performed as previously described ([Meredith, 2004]). […] After incubation, the oocytes were washed sequentially five times in 1 ml of ice-cold 120 mM NaCl solution, lysed individually with 100 μl 2% (w/v) SDS and liquid scintillation counted. […]
Where a SMILES comes first, the peptide text is derived from it.
reported metric: Ki (µM)
Give the number; µM is assumed, so skip it.

[Q] Consider the molecule NCC(=O)N[C@@H](CCC(N)=O)C(=O)O [Gly-L-Gln] (H-Gly-Gln-OH) . State its measured Ki.
[A] 390

====

# assay target: R282A-PepT1 (Oryctolagus cuniculus, UniProt P36836, R282A)
# Sequence (P36836 1-707 R282A): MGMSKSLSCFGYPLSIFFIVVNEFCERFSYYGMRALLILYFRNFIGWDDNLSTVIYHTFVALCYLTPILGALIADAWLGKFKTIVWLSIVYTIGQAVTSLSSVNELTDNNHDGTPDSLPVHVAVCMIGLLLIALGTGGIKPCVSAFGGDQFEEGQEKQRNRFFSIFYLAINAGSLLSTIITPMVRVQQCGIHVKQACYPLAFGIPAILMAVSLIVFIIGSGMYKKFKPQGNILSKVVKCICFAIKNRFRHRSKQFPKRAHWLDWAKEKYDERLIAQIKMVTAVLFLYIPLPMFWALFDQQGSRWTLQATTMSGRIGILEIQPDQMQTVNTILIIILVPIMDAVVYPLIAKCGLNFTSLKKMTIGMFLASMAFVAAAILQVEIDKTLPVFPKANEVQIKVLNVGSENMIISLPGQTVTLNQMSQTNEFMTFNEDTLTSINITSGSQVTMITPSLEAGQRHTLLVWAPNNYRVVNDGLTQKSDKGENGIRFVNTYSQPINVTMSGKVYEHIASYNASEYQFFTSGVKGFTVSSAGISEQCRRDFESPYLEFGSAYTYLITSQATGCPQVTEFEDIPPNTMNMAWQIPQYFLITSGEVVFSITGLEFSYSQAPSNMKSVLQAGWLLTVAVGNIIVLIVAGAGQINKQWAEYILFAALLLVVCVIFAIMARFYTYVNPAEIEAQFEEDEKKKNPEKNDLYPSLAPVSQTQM
# assay protocol: Inhibition of [3H]-D-Phe-L-Gln uptake into Xenopus oocytes expressing R282A-PepT1 (competition, Ki)
# condition: pHout 5.5, 0.4 μM [3H]-D-Phe-L-Gln
Where a SMILES comes first, the peptide text is derived from it.
reported metric: pKi
Note on units: pKi is unitless, being -log10 of a concentration expressed in mol/L.

[Q] Under R282A-PepT1 (Oryctolagus cuniculus, UniProt P36836, R282A), report pKi for NCC(=O)N[C@@H](CCC(N)=O)C(=O)O [Gly-L-Gln] (H-Gly-Gln-OH)
[A] 3.52

====

# assay target: wild-type PepT1 (Oryctolagus cuniculus)
# Construct: expressed in transfected cells; host or cells: Xenopus laevis oocytes injected with cRNA
# Sequence (P36836 1-707): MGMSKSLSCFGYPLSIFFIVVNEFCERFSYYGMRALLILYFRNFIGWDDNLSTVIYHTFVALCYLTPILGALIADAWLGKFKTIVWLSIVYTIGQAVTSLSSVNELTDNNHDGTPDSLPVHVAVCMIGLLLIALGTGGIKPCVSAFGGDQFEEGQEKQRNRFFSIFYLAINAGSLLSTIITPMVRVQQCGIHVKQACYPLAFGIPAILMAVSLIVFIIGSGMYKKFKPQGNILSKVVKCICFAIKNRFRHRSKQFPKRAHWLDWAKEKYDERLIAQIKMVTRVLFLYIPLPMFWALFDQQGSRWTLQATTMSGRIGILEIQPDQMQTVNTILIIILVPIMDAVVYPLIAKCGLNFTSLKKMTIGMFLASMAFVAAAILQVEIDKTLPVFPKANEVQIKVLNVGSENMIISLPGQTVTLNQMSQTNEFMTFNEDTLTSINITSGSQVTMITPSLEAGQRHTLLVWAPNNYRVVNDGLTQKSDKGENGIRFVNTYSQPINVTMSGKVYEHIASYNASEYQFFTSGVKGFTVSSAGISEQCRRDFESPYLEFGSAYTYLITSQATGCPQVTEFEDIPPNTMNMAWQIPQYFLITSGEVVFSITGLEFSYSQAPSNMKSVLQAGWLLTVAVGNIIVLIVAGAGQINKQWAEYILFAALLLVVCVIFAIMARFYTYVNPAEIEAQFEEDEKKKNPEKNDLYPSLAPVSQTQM
# assay protocol: Diethylpyrocarbonate inhibition of PepT1-mediated dipeptide uptake and protection by substrates
# Assay type: cell-based, rabbit
# condition: 5 mM present during 1 mM DEPC incubation (15 min), uptake measured over 1 h
Where a SMILES comes first, the peptide text is derived from it.
reported metric: protection of PepT1 from DEPC inhibition

N[C@@H](Cc1ccc(O)cc1)C(=O)O; not
NCC(=O)N[C@@H](CCC(N)=O)C(=O)O [Gly-L-Gln] (H-Gly-Gln-OH); largely prevented
CC(=O)NC(Cc1ccccc1)C(=O)O (stereo not shown); largely prevented

====

# assay target: wild-type rabbit PepT1 (Oryctolagus cuniculus, UniProt P36836)
# Construct: expressed in transfected cells; host or cells: Xenopus laevis oocytes injected with cRNA
# assay protocol: Inhibition of [3H]-D-Phe-L-Gln uptake into Xenopus oocytes expressing wild-type PepT1 (competition, Ki)
# Type: cell-based
# condition: PepT1, data not shown; read-out: Ki (PepT1 substrate)
reported metric: Ki

[Q] Could you please provide reported Ki for C[C@H](N)C(=O)NCCc1ccc(O)cc1 ? Thanks!
[A] ~100 µM

====

# assay target: R282H-PepT1 (Oryctolagus cuniculus, UniProt P36836, R282H)
# assay protocol: Inhibition of [3H]-D-Phe-L-Gln uptake into Xenopus oocytes expressing R282H-PepT1 (competition, Ki)
# condition: pHout 5.5, 0.4 μM [3H]-D-Phe-L-Gln
Where a SMILES comes first, the peptide text is derived from it.
reported metric: Ki (µM)
Kindly provide the numeric value in µM only, without the unit symbol.

[Q] Query Ki for NCC(=O)N[C@@H](CCC(N)=O)C(=O)O [Gly-L-Gln] (H-Gly-Gln-OH)
[A] 300

====

# assay target: R282K-PepT1 (Oryctolagus cuniculus, UniProt P36836, R282K)
# assay protocol: Inhibition of [3H]-D-Phe-L-Gln uptake into Xenopus oocytes expressing R282K-PepT1 (competition, Ki)
# condition: pHout 5.5, 0.4 μM [3H]-D-Phe-L-Gln
Where a SMILES comes first, the peptide text is derived from it.
reported metric: Ki (µM)
Respond with the bare value in µM.

[Q] Please look at NCC(=O)N[C@@H](CCC(N)=O)C(=O)O [Gly-L-Gln] (H-Gly-Gln-OH) and tell me its recorded Ki on R282K-PepT1 (Oryctolagus cuniculus, UniProt P36836, R282K).
[A] 480
